Just for reference, ChEMBL document CHEMBL1124135 is where these values come from.

Measured IC50 by item
molecular target: Potassium-transporting ATPase (Canis familiaris); test: In vitro inhibitory activity against H+/K+ ATPase prepared from canine fundic mucosa
Return type: number; implicit unit µM.

The cases that follow already have their IC50 on record.
Request: What does the record list as IC50 for CNc1ccccc1C[S+]([O-])c1nc2ccccc2[nH]1 (stereo unspecified) ?
Response: 0.6

Request: What does the record list as IC50 for Nc1ccccc1C[S+]([O-])c1nc2cc(Cl)ccc2[nH]1 (stereo unspecified) ?
Response: 12

Request: What does the record list as IC50 for Nc1ccc(F)cc1C[S+]([O-])c1nc2ccccc2[nH]1 (stereo unspecified) ?
Response: 25

---
Request: What does the record list as IC50 for Cc1cccc(C[S+]([O-])c2nc3ccccc3[nH]2)c1N (stereo unspecified) ?
Response: 3.2

Request: What does the record list as IC50 for CCCCc1ccc(N)c(C[S+]([O-])c2nc3ccccc3[nH]2)c1 (stereo unspecified) ?
Response: 2.6

Request: What does the record list as IC50 for Cc1ccc(C)c(C[S+]([O-])c2nc3cc(C(F)(F)F)ccc3[nH]2)c1N (stereo unspecified) ?
Response: 1.5

Request: What does the record list as IC50 for COc1ccc2[nH]c([S+]([O-])Cc3ccccc3N)nc2c1 (stereo unspecified) ?
Response: 11

Request: What does the record list as IC50 for COc1cc2nc([S+]([O-])Cc3ccccc3N)[nH]c2cc1OC (stereo unspecified) ?
Response: 120

* * *

target: Potassium-transporting ATPase (Canis familiaris); assay: In vitro inhibitory activity against H+/K+ ATPase prepared from canine fundic mucosa
MEASURE: IC50 (µM)
Return type: number; implicit unit µM.

Request: What does the record list as IC50 for Nc1cc(Cl)ccc1C[S+]([O-])c1nc2ccccc2[nH]1 (stereo unspecified) ?
Response: 24

---
Request: What does the record list as IC50 for Nc1ccccc1C[S+]([O-])c1nc2ccccc2[nH]1 (stereo unspecified) ?
Response: 4.3

Request: What does the record list as IC50 for Cc1ccc2nc([S+]([O-])Cc3ccc(C)c(C)c3N)[nH]c2c1 (stereo unspecified) ?
Response: 0.7

Request: What does the record list as IC50 for COc1cccc(C[S+]([O-])c2nc3ccccc3[nH]2)c1N (stereo unspecified) ?
Response: 9.3

Request: What does the record list as IC50 for COc1ccc2[nH]c([S+]([O-])Cc3c(N)cc(C)c(OC)c3C)nc2c1 (stereo unspecified) ?
Response: 2.1

* * *

Measured inhibition in vivo at 3 mg/kg by item
test system: Canis familiaris; assay: Inhibitory activity when administered intravenously in histamine-stimulated gastric fistula dog at 3 mg/kg, id; format: functional; conditions: Canis lupus familiaris, Stomach, in the assay text read “in” for “when administered intravenously in”
Return type: number; implicit unit %.

The cases that follow already have their inhibition in vivo at 3 mg/kg on record.
Request: What does the record list as inhibition in vivo at 3 mg/kg for Nc1ccc(C(F)(F)F)cc1C[S+]([O-])c1nc2ccccc2[nH]1 (stereo not given) ?
Response: 16

Request: What does the record list as inhibition in vivo at 3 mg/kg for COc1cccc(C[S+]([O-])c2nc3ccccc3[nH]2)c1N (stereo not given) ?
Response: 68

Request: What does the record list as inhibition in vivo at 3 mg/kg for Nc1cc(Cl)ccc1C[S+]([O-])c1nc2ccccc2[nH]1 (stereo not given) ?
Response: 13

Request: What does the record list as inhibition in vivo at 3 mg/kg for COc1ccc2[nH]c([S+]([O-])Cc3ccccc3N)nc2c1 (stereo not given) ?
Response: 78

Let us move to another entry and its inhibition in vivo at 3 mg/kg.
Request: What does the record list as inhibition in vivo at 3 mg/kg for COc1ccc2[nH]c([S+]([O-])Cc3c(N)cc(C)c(OC)c3C)nc2c1 (stereo not given) ?
Response: 31
